Test system: OVCAR-5 complex spheroids, viability
Assay: Anticancer human tumor OVCAR-5 cell line growth inhibition;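 note: spheroids exposed to agents for seven days; 100% = DMSO vehicle control wells viability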
Settings: second compound 3.16 µM; first compound 0.01 µM; stronger effect = lower value
Consider the following molecules and their measured viability, T/C readings.

{"columns": ["molecule", "viability, T/C (%)"],
 "data": [
  ["CC(C)CC(NC(=O)CNC(=O)c1cc(Cl)ccc1Cl)B1OC(=O)CC(CC(=O)O)(C(=O)O)O1 (configuration not stated) + NC1CC1c1ccc(-c2cccc(O)c2)cc1", 65.8],
  ["CC[C@@]1(O)C(=O)OCc2c1cc1n(c2=O)Cc2cc3c(CN(C)C)c(O)ccc3nc2-1 + NC1CCC(NC2CC2c2ccccc2)CC1", 51.3],
  ["CC(C)CC(NC(=O)C(Cc1ccccc1)NC(=O)c1cnccn1)B(O)O (configuration not stated) + NC1CC1c1ccc(-c2cccc(O)c2)cc1", 32.3],
  ["CC[C@@]1(O)C(=O)OCc2c1cc1n(c2=O)Cc2cc3c(CN(C)C)c(O)ccc3nc2-1 + NC1CC1c1ccc(-c2cccc(O)c2)cc1", 33.1],
  ["Cn1ncnc1C1c2n[nH]c(=O)c3cc(F)cc(c23)NC1c1ccc(F)cc1 (configuration not stated) + NC1CCC(NC2CC2c2ccccc2)CC1", 91.3],
  ["COc1cc(Nc2ncc3c(n2)-c2ccc(Cl)cc2C(c2c(F)cccc2OC)=NC3)ccc1C(=O)O + NC1CCC(NC2CC2c2ccccc2)CC1", 83.7],
  ["CC1COCCN1c1cc(-c2ccnn2C)c2ccnc(-c3ccn[nH]3)c2n1 (configuration not stated) + NC1CC1c1ccc(-c2cccc(O)c2)cc1", 75.1]
]}
